Origin of the recorded values: patent EP2604596A1

Assay: Non-hygroscopicity test (storage in stability chambers, water content)
Assay type: physicochemical
Conditions: 40°C at humidity of 75%, for 3 months; mesylate
Give measured Water Content after 3 months (%) for each item. Keep answers brief.

Look at this molecule and give its reported Water Content after 3 months (%). CS(=O)(=O)O.Cc1ccc(NC(=O)c2ccc(CN3CCN(C)CC3)cc2)cc1Nc1nccc(-c2cccnc2)n1 [Polymorph Y sample] 0.50%

Please look up its Water Content after 3 months (%): CS(=O)(=O)O.Cc1ccc(NC(=O)c2ccc(CN3CCN(C)CC3)cc2)cc1Nc1nccc(-c2cccnc2)n1 [Polymorph β reference sample, reference compound] 0.60%

Dear colleague, I am looking for the recorded Water Content after 3 months (%) of the following molecule: CS(=O)(=O)O.Cc1ccc(NC(=O)c2ccc(CN3CCN(C)CC3)cc2)cc1Nc1nccc(-c2cccnc2)n1 [Polymorph B sample] 0.48%

So what does the record say about Water Content after 3 months (%) for CS(=O)(=O)O.Cc1ccc(NC(=O)c2ccc(CN3CCN(C)CC3)cc2)cc1Nc1nccc(-c2cccnc2)n1 [Polymorph M sample] ? 0.48%

What value of Water Content after 3 months (%) has been reported for the following molecule? CS(=O)(=O)O.Cc1ccc(NC(=O)c2ccc(CN3CCN(C)CC3)cc2)cc1Nc1nccc(-c2cccnc2)n1 [Polymorph P sample] 0.50%

----------
Record form. Attribute: Initial Water Content (%). Fill in for each entry.
Experiment: Non-hygroscopicity test (storage in stability chambers, water content)
Type: physicochemical
Settings: before storage; mesylate
Write down the numeric answer in % and omit the unit.

Given the compound CS(=O)(=O)O.Cc1ccc(NC(=O)c2ccc(CN3CCN(C)CC3)cc2)cc1Nc1nccc(-c2cccnc2)n1 [Polymorph Y sample] , what is its reported Initial Water Content (%)? 0.40

Value lookup for Initial Water Content (%); key = CS(=O)(=O)O.Cc1ccc(NC(=O)c2ccc(CN3CCN(C)CC3)cc2)cc1Nc1nccc(-c2cccnc2)n1 [Polymorph P sample] 0.42

Please report the recorded Initial Water Content (%) for CS(=O)(=O)O.Cc1ccc(NC(=O)c2ccc(CN3CCN(C)CC3)cc2)cc1Nc1nccc(-c2cccnc2)n1 [Polymorph M sample] . 0.38

Quick one: Initial Water Content (%) of CS(=O)(=O)O.Cc1ccc(NC(=O)c2ccc(CN3CCN(C)CC3)cc2)cc1Nc1nccc(-c2cccnc2)n1 [Polymorph β reference sample, reference compound] ? 0.34

// Initial Water Content (%) lookup, key: CS(=O)(=O)O.Cc1ccc(NC(=O)c2ccc(CN3CCN(C)CC3)cc2)cc1Nc1nccc(-c2cccnc2)n1 [Polymorph B sample] 0.37
